method_summary: Toxicity liver stage against HepG2, at 10uM
Assay type: cell-based
Parameters: test concentration 10 uM, cell line HepG2-A16-CD81EGFP
experimental_parameters: human, HepG2-A16-CD81EGFP cells; read-out: INHIBITION

{"columns": ["compound", "units_of_measure", "cytotoxicity at 10 µM"],
 "data": [
  ["CCN1CCC(CC(=O)N(C)CC(=O)c2ccc(O)cc2)CC1", "%", 1.73],
  ["CN(Cc1nc(N)c2ccccc2n1)CC1CCCN1c1cccnn1 (stereo unspecified)", "%", -1.4],
  ["Cc1cc(CN(C)C2CCCN(c3cccnn3)C2)no1 (stereo unspecified)", "%", -2.45],
  ["Cc1ncsc1CCC(=O)NCc1cc2n(n1)CCNC2", "%", -3.78],
  ["CN(C(=O)Cn1nc(-c2ccccc2Cl)ccc1=O)C1CCS(=O)(=O)C1 (stereo unspecified)", "%", 1.96],
  ["CN(Cc1ccccc1)C(=O)CN1CCCC1c1cnn(C)c1 (stereo unspecified)", "%", 6.91]
]}
